system: COLO 205 colon; experiment: NCI-60 one-dose screen, 48 h; settings: 10 µM unless noted
The panel holds about 83,000 compounds, 20% with a hit somewhere; the sample as a whole holds those more often. The source made the active and inactive calls. The calls were made as follows: active = growth percent below 10; inactive = the rest.
Outcome codes: active, inactive

compound=CNc1nc(NC2CCCC2)nc(Sc2ccc(OC)cc2)n1 test_target="COLO 205 colon" group_label=inactive
compound=CCOc1cc(/C=C/C(=O)CC(=O)/C=C/c2ccc(OC(=O)CNc3nc4ccc(OC)cc4s3)c(OCC)c2)ccc1OC(=O)CNc1nc2ccc(OC)cc2s1 test_target="COLO 205 colon" group_label=inactive
compound=Cc1sc2nc(NCc3ccccc3)[nH]c(=O)c2c1C test_target="COLO 205 colon" group_label=inactive
compound=CCSc1ncc(Br)c(Sc2nc(N)nc3nc[nH]c23)n1 test_target="COLO 205 colon" group_label=inactive
compound=O=C1C=CC(=O)N1c1ccccc1N1C(=O)C=CC1=O test_target="COLO 205 colon" group_label=inactive
compound="COc1ccc(OC)c2c1CCC1(C2)NC(=O)NC1=O (centres undefined)" test_target="COLO 205 colon" group_label=inactive
compound=Cc1ccc2nc(-c3ccc(N(C)C)c(Br)c3)cn2c1 test_target="COLO 205 colon" group_label=inactive
compound=COc1ccc2cc(C3=CC(=O)CCC3)ccc2c1 test_target="COLO 205 colon" group_label=inactive
compound=CN1CCN(CCCOc2ccc3ncnc(Nc4ccc(OCc5cccc(F)c5)c(Cl)c4)c3c2)CC1 test_target="COLO 205 colon" group_label=active
compound=COc1cc(/C=C\C(C)=N\Nc2ccccc2)ccc1O test_target="COLO 205 colon" group_label=inactive
compound=Cc1cnc2nc(-c3ccc(N(C)C)cc3)cn2c1 test_target="COLO 205 colon" group_label=inactive
compound=O=C(CN1CCN(c2ccc(Cl)cc2)CC1)N1CCN(c2nnc(-c3ccccc3)c(-c3ccccc3)n2)CC1 test_target="COLO 205 colon" group_label=inactive
compound="Cc1c2oc3c(C)ccc(C(=O)OC(C)C4NC(=O)C(C(C)C)N(C)C(=O)CN(C)C(=O)C5CCCN5C(=O)C(C(C)C)NC4=O)c3nc-2c(C(=O)OC(C)C2NC(=O)C(C(C)C)N(C)C(=O)CN(C)C(=O)C3CCCN3C(=O)C(C(C)C)NC2=O)c(N)c1=O (centres undefined)" test_target="COLO 205 colon" group_label=active
compound="OC(c1cc(-c2cccc(Cl)c2)nc2ccccc12)C1CCCCN1 (centres undefined)" test_target="COLO 205 colon" group_label=active
compound=COc1ccc(C(=O)COc2cccc(/C=C3\COc4ccc5ccccc5c4C3=O)c2)cc1 test_target="COLO 205 colon" group_label=inactive
compound=CCN1CCN(c2nc(NNC(=O)Cc3ccccc3)nc(N3CCN(C(c4ccccc4)c4ccccc4)CC3)n2)CC1 test_target="COLO 205 colon" group_label=active
compound=N#Cc1c(-c2ccccc2)cc(-c2ccccc2)n(CC(=O)O)c1=O test_target="COLO 205 colon" group_label=inactive
compound=COc1cc(/C=C/C(=O)C(C(=O)/C=C/c2ccc(OC(=O)CCNc3nnc(C)s3)c(OC)c2)C(=O)CCNc2nnc(C)s2)ccc1OC(=O)CCNc1nnc(C)s1 test_target="COLO 205 colon" group_label=active
compound=O=C1c2cccc(NCCN=Cc3ccccc3O)c2C(=O)c2c(NCCN=Cc3ccccc3O)cccc21 test_target="COLO 205 colon" group_label=active

Origin of the recorded values: PubChem BioAssay (NCI)
